# Target under test: Neuropeptide Y receptor type 2 (Homo sapiens) (UniProt P49146)
# Sequence (P49146 whole entry, looked up): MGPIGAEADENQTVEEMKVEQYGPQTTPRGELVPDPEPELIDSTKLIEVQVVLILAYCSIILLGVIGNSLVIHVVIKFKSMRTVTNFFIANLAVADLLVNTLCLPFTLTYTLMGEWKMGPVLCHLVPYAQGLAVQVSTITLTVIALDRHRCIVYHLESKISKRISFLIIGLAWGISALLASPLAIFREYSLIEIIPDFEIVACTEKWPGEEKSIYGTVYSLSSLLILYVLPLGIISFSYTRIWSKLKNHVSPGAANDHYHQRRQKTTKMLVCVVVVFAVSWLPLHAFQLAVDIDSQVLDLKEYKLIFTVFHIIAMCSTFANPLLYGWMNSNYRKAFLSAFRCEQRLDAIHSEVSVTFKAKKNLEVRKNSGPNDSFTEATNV
# Procedure summary: blockers of human neuropeptide Y Y2 receptor – cell-based, primary screen (AID 793);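 also: 0% = vehicle with agonist challenge and 100% = reference antagonist with challenge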
# Assay conditions: NPY-Y2 expressing cells, antagonist mode; at 2.7 µM; stronger effect = higher value
Screen size: about 140,000 compounds; about 1,400 (1%) were called active. What follows is part of a selection rich in actives, with near analogues and random picks from the rest.
Record form. Attribute: inhibition. Fill in for each entry.
Give bare numbers, in %.

Below are worked cases with known answers.
[[record]]
molecule = "CC(C)(C)NC(=O)NC(=O)COC(=O)Cn1c(C(F)(F)F)nc2ccccc21"
numeric_readout = 6.71

[[record]]
molecule = "CCOC(=O)NCc1ccc2c(c1)OCO2"
numeric_readout = 4.28

[[record]]
molecule = "CCCc1cc(=O)[nH]c(SCc2cc(=O)oc3c(C)c(C)ccc23)n1"
numeric_readout = 6.69


Record inhibition for all entries; do not skip any.
1. Cc1nc2ccccc2cc1C(=O)N/N=C/c1ccc([N+](=O)[O-])cc1
2. Cc1ccc(CN2CCN(/N=C/c3cccnc3)CC2)c(C)c1
3. O=C1CC(c2cccc(Cl)c2)CC(O)=C1C=Nc1ccccc1 (stereo unspecified)
4. O=C1CC(c2ccccc2)CC(O)=C1C=NCCN1CCOCC1 (stereo unspecified)
5. Cc1ccccc1C(=O)NNC(=O)CN1C(=O)c2ccccc2C1=O
6. COC(=O)c1ccc(CSc2nncn2C)cc1

## Output
1: -0.48; 2: 2.92; 3: 18.4; 4: 0.58; 5: 4.26; 6: 3.48

----------
# Target under test: Neuropeptide Y receptor type 2 (Homo sapiens) (UniProt P49146)
# Procedure summary: blockers of human neuropeptide Y Y2 receptor – cell-based, primary screen (AID 793);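 also: 0% = vehicle with agonist challenge and 100% = reference antagonist with challenge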
# Assay conditions: NPY-Y2 expressing cells, antagonist mode; at 2.7 µM
In all, about 140,000 compounds went through this assay and about 1,400 (1%) were called active. Rule as the data show it: active = inhibition above about 17%; inactive = the rest. This excerpt belongs to a sample that is enriched for actives.
A correct response names exactly one class from true (active), false (inactive)

Recorded results for 3 molecules are shown here.
[[record]]
molecule = "COc1ccc(N2CCN(Cc3nnc(-c4ccccc4)o3)CC2)cc1"
qualitative_label = "false"

[[record]]
molecule = "N=c1c2c(-c3ccccc3)c(-c3ccccc3)n(Cc3ccccc3)c2ncn1CCCO"
qualitative_label = "true"

[[record]]
molecule = "CN(C)S(=O)(=O)c1cc(NC(=O)CN2C(=O)NC3(CCCc4ccccc43)C2=O)ccc1Cl (centres undefined)"
qualitative_label = "false"


## Input State the result this test recorded for CCCC/S(C)=N/S(=O)(=O)c1ccc(C)cc1 (centres undefined) .
## Output false

## Input So what was the verdict on `COc1ccc(/C(N)=N/OC(=O)Cc2ccccc2)cc1` in this test?
## Output false

## Input Returns: the outcome recorded for `O=C(Nc1ccccc1)N1CCN(Cc2ccccc2)CC1` in this assay.
## Output false

## Input Please share the test call associated with `COc1ccc(C(=O)Nc2c(Cl)cc(Cl)cc2C(=O)N2CCC(C)CC2)cc1` .
## Output false

## Input Hi, sorry to bother you, what did the test record for `N#CCOc1ccc(C2=NO[C@@H]3[C@@H]4C[C@@H]([C@H]5C(=O)N(c6ccc7c(c6)OCO7)C(=O)[C@@H]45)[C@H]23)cc1` ?
## Output false

## Input Status in this test for `N/C(=N\OC(=O)CCc1ccccc1)c1ccc(Cl)cc1` ?
## Output false

## Input GET /call?item= `Cc1ccc(O)c(CNc2nc3ccccc3n2C)c1` returns the recorded outcome of this test.
## Output false

----------
So I've got a bunch of compounds here, and I need their inhibition values.
# Target under test: Neuropeptide Y receptor type 2 (Homo sapiens) (UniProt P49146)
# Procedure summary: blockers of human neuropeptide Y Y2 receptor – cell-based, primary screen (AID 793);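 also: 0% = vehicle with agonist challenge and 100% = reference antagonist with challenge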
# Assay conditions: NPY-Y2 expressing cells, antagonist mode; at 2.7 µM; stronger effect = higher value
About 1,400 (1%) of roughly 140,000 compounds were called active. The entries come from a sample that favours actives as a whole.

Some compounds with recorded inhibition:
[[record]]
compound = "COc1ccc(CCNC(=O)CSc2nc(-c3ccc(OC)c(OC)c3)ccc2C#N)cc1"
target_under_test = "Neuropeptide Y receptor type 2 (Homo sapiens) (UniProt P49146)"
result = "4.73% (inactive)"

[[record]]
compound = "Cc1ccc(N/N=C2\\COC(C)(C)CC2=O)cc1"
target_under_test = "Neuropeptide Y receptor type 2 (Homo sapiens) (UniProt P49146)"
result = "1.13% (inactive)"

[[record]]
compound = "COc1ccc2[nH]c3c(=O)n(Cc4ccco4)cnc3c2c1"
target_under_test = "Neuropeptide Y receptor type 2 (Homo sapiens) (UniProt P49146)"
result = "3.41% (inactive)"


As a next step, examine the compound that follows.
## Input Could you please provide reported inhibition for O=C(OC1CCOC1=O)c1cccc(S(=O)(=O)Nc2ccc(F)cc2)c1 (centres undefined) ? Thanks!
## Output 2.56% (inactive)

----------
# Target under test: Neuropeptide Y receptor type 2 (Homo sapiens) (UniProt P49146)
# Procedure summary: blockers of human neuropeptide Y Y2 receptor – cell-based, primary screen (AID 793);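 also: 0% = vehicle with agonist challenge and 100% = reference antagonist with challenge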
# Assay conditions: NPY-Y2 expressing cells, antagonist mode; at 2.7 µM
The campaign covered roughly 140,000 compounds. About 1,400 (1%) were called active. No stated cut-off is given here; in the data, active means inhibition above about 17%; inactive means the rest. The list comes from a sample in which actives are over-represented; it also holds close analogues and randomly drawn compounds.
Your response should consist of one outcome taken from yes = active, no = inactive

[[record]]
compound = "Nc1nonc1-c1nc2ccccc2n1CCC(=O)O"
qualitative_label = "no"

[[record]]
compound = "O=C(c1cncc(Br)c1)N1CCN(c2ccc([N+](=O)[O-])cc2)CC1"
qualitative_label = "no"

[[record]]
compound = "COc1ccc(/C=C/C(=O)NC(=S)NN2CCCCC2c2cccnc2)cc1 (configuration not stated)"
qualitative_label = "yes"

[[record]]
compound = "COCc1nc2ccccc2n1Cc1ccccc1Br"
qualitative_label = "no"

[[record]]
compound = "Cc1cc(C(=O)OCC(=O)N2c3ccccc3NC(=O)C2(C)C)c(C)n1-c1ccccc1"
qualitative_label = "yes"


## Input Hi, do you know how `CC(=O)Nc1nonc1-c1nc2ccccc2n1Cc1ccccn1` came out in this test?
## Output no

## Input Give the logged outcome of this assay for the following compound: `O=C(NCCN1CCOCC1)c1cc(Sc2cccc(Cl)c2)nc2ccccc12`
## Output no

----------
# Target under test: Neuropeptide Y receptor type 2 (Homo sapiens) (UniProt P49146)
# Procedure summary: blockers of human neuropeptide Y Y2 receptor – cell-based, primary screen (AID 793);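 also: 0% = vehicle with agonist challenge and 100% = reference antagonist with challenge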
# Assay conditions: NPY-Y2 expressing cells, antagonist mode; at 2.7 µM
In all, about 140,000 compounds went through this assay and about 1,400 (1%) were called active. Rule as the data show it: active = inhibition above about 17%; inactive = the rest. The sample holds actives, similar compounds and a random draw of the others, so the mix is not that of the screen.
Respond using exactly one of the listed classes: True for active, False for inactive

These recorded examples may help you get a feel for the data.
[[record]]
molecule = "COC(=O)Nc1sc2nc(C)cc(C)c2c1-n1cccc1"
target_under_test = "Neuropeptide Y receptor type 2 (Homo sapiens) (UniProt P49146)"
qualitative_label = "False"

[[record]]
molecule = "CCCCOC(=O)Nc1sc2nc(C)cc(C)c2c1-n1cccc1"
target_under_test = "Neuropeptide Y receptor type 2 (Homo sapiens) (UniProt P49146)"
qualitative_label = "False"

[[record]]
molecule = "COC(=O)c1ccc(CSc2nc3cc(Cl)ccc3o2)cc1"
target_under_test = "Neuropeptide Y receptor type 2 (Homo sapiens) (UniProt P49146)"
qualitative_label = "True"


Consider the additional molecule presented here.
## Input Please let me know the test result on file for `Cc1cc(NC(=O)COC(=O)COc2ccc(Cl)cc2C)c([N+](=O)[O-])cc1C` .
## Output False

----------
Can you tell me inhibition for the items I'm about to list?
# Target under test: Neuropeptide Y receptor type 2 (Homo sapiens)
# Procedure summary: blockers of human neuropeptide Y Y2 receptor – cell-based, primary screen (AID 793);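 also: 0% = vehicle with agonist challenge and 100% = reference antagonist with challenge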
# Assay conditions: NPY-Y2 expressing cells, antagonist mode; at 2.7 µM; stronger effect = higher value
In all, about 140,000 compounds went through this assay and about 1,400 (1%) were called active. This excerpt belongs to a sample that is enriched for actives.

[[record]]
compound = "COc1ccc(C(=O)CSc2nnc(COc3ccccc3)n2Cc2ccco2)cc1"
reported_property = "inhibition"
result = "16.4% (inactive)"

[[record]]
compound = "O=C(Nc1nnc(CCc2ccccc2)s1)C1CCCO1 (centres undefined)"
reported_property = "inhibition"
result = "3.28% (inactive)"

[[record]]
compound = "COc1ccccc1N1CCN(CC(=O)NC(=O)NCc2ccco2)CC1"
reported_property = "inhibition"
result = "2.56% (inactive)"


Continue with the next compound.
## Input Look up inhibition of `COc1ccc(/C(N)=N/OC(=O)CCCc2ccccc2)cc1` and report it.
## Output 22.3% (active)

----------
# Target under test: Neuropeptide Y receptor type 2 (Homo sapiens) (UniProt P49146)
# Procedure summary: blockers of human neuropeptide Y Y2 receptor – cell-based, primary screen (AID 793);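 also: 0% = vehicle with agonist challenge and 100% = reference antagonist with challenge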
# Assay conditions: NPY-Y2 expressing cells, antagonist mode; at 2.7 µM
In all, about 140,000 compounds went through this assay and about 1,400 (1%) were called active. No stated cut-off is given here; in the data, active means inhibition above about 17%; inactive means the rest. For the sample, actives were picked, then their nearest neighbours and some compounds at random.
Permitted responses: active, inactive

[[record]]
compound = "CCOc1ccc(S(=O)(=O)NCCSc2ccccc2)cc1"
qualitative_label = "active"

[[record]]
compound = "CCOc1ccc(C(O)Cc2nc3ccccc3n2C)cc1 (stereo not drawn)"
qualitative_label = "inactive"

[[record]]
compound = "Cc1ccc(S(=O)(=O)NCCSc2ccccc2)cc1[N+](=O)[O-]"
qualitative_label = "inactive"

[[record]]
compound = "CCC1S/C(=N/N=C/c2ccco2)NC1=O (stereo not drawn)"
qualitative_label = "inactive"


## Input Name the outcome recorded for `O=C1CCCC(O)=C1C=NCCc1ccccc1` in the assay.
## Output inactive

## Input Hi, do you know how `O=C(CC(=O)N/N=C\c1cccc(Cl)c1Cl)NCc1ccccc1` came out in this test?
## Output inactive

## Input What did this assay record as the result for OC(COc1ccc2ccccc2c1)CN1CCOCC1 (stereo not drawn) ?
## Output inactive

## Input Answer briefly: the call reported for `CCOc1ccc(NC(=O)CSc2nc3ccccc3c(=O)n2Cc2cccs2)cc1` in this assay.
## Output inactive
